Numbers sourced from patent US11426397B2.

system: GPR6 receptor expressed in CHO-K1 cells (Homo sapiens, UniProt P46095)
Construct: expressed in transfected cells
Sequence (P46095 whole entry): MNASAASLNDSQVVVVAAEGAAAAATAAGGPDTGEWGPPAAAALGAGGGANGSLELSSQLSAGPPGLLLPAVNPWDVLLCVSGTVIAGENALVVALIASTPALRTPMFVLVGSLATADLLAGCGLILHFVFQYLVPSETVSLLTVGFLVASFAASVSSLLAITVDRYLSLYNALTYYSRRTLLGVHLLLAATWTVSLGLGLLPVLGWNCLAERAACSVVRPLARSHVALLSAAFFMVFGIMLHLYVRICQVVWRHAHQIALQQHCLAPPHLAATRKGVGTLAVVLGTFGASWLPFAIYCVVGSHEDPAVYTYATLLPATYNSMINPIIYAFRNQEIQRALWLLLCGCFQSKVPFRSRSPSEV
assay: In vitro inhibition of cAMP (EC50), cell-based HTRF cAMP assay
test context: inhibition of constitutive cAMP activity of GPR6 in CHO-K1 cells
measured attribute: pEC50, in vitro inhibition of cAMP
In your answer, state the number alone without any accompanying words.

What value of measured pEC50, in vitro inhibition of cAMP is listed for COc1cccnc1C(=O)Nc1cc(C#N)ccc1N1CCC(Oc2ccc(F)cc2F)CC1 ?
6.4

What value of measured pEC50, in vitro inhibition of cAMP is listed for COc1ncccc1C(=O)Nc1cc(C#N)ccc1N1CCN(Cc2cscn2)CC1 ?
6.0

What value of measured pEC50, in vitro inhibition of cAMP is listed for COc1nn(C)cc1C(=O)Nc1cc(C#N)cnc1N1CCN(Cc2cccc(OC(F)(F)F)c2)CC1 ?
6.7

What value of measured pEC50, in vitro inhibition of cAMP is listed for COc1ncccc1C(=O)Nc1cc(C#N)ccc1N1CCN(C(=O)c2ccc(F)cc2)CC1 ?
6.7

What value of measured pEC50, in vitro inhibition of cAMP is listed for COc1ccc(N2CCOCC2)cc1C(=O)Nc1cc(C#N)ccc1N1CCC(Oc2ccc(F)cc2F)CC1 ?
5.5

What value of measured pEC50, in vitro inhibition of cAMP is listed for N#Cc1ccc(N2CCC(Oc3ccc(F)cc3F)CC2)c(NC(=O)c2cccn(C3CCCCC3)c2=O)c1 ?
5.8

What value of measured pEC50, in vitro inhibition of cAMP is listed for COc1nn(C)cc1C(=O)Nc1cc(C#N)cnc1N1CCN(Cc2cccc(OC(F)F)c2)CC1 ?
6.5

What value of measured pEC50, in vitro inhibition of cAMP is listed for Cn1cccc(C(=O)Nc2cc(C#N)ccc2N2CCC(C(F)(F)c3ccc(F)cc3F)CC2)c1=O ?
6.8

What value of measured pEC50, in vitro inhibition of cAMP is listed for COc1ncccc1C(=O)Nc1cnc(C#N)cc1N1CCC(Oc2ccc(F)cc2F)CC1 ?
6.9

What value of measured pEC50, in vitro inhibition of cAMP is listed for COc1cc(N2CCC(Oc3ccc(F)cc3F)CC2)c(NC(=O)c2cnccc2OC)cn1 ?
7.4

What value of measured pEC50, in vitro inhibition of cAMP is listed for Cc1ccc(Cl)c(OC2CCN(c3ncc(C#N)cc3NC(=O)c3ccccn3)CC2)c1 ?
6.6

What value of measured pEC50, in vitro inhibition of cAMP is listed for Cn1ccc(C(=O)Nc2cc(C#N)ccc2N2CCC(Oc3ccc(F)cc3F)CC2)n1 ?
6.9

What value of measured pEC50, in vitro inhibition of cAMP is listed for COCCCn1cccc(C(=O)Nc2cc(C#N)ccc2N2CCC(Oc3ccc(F)cc3F)CC2)c1=O ?
5.9

What value of measured pEC50, in vitro inhibition of cAMP is listed for COc1ncccc1C(=O)Nc1cc(C#N)ccc1N1CCN(C(=O)c2ccc(F)cc2F)CC1 ?
6.3

What value of measured pEC50, in vitro inhibition of cAMP is listed for Cn1cccc(C(=O)Nc2cc(C#N)ccc2N2CCC(Oc3c(F)cccc3F)CC2)c1=O ?
6.3
